- Test: NCI Yeast Anticancer Drug Screen. Data for the sgs1 mgt1 strain (AID 161);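 further: 0% = growth of cultures given vehicle only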
- Reported conditions: S. cerevisiae sgs1 mgt1 strain, at 5.0 µM (retest, dose inferred, filed as 0.5), active compounds read high
- Experimental: Growth inhibition of yeast strains with defined genetic alterations is measured as a screen for potential anti-cancer activity. Selected strains with alterations in DNA damage repair or cell cycle control were exposed to compounds and growth inhibition was measured relative to vehicle treated controls. The strain used in this assay is sgs1 mgt1
The panel holds about 79,000 compounds, 15% with a hit somewhere; the sample as a whole holds those more often.

Molecule | Unit | growth inhibition
COc1ccc(Br)c(C(=O)Sc2nnnn2-c2cccc(Cl)c2)c1 | % | -19
COC(=O)C1=C(C)NC(C)=C(C(=O)OC)C1c1cccc(/[N+]([O-])=C/c2ccccc2)c1 | % | 51
C/C(=N\O)C1CC2C=C(C#N)C1N(Cc1ccccc1)C2 (stereo not given) | % | -10
CC(C)[N+]([O-])(CCCNc1c2ccccc2nc2cccc([N+](=O)[O-])c12)C(C)C | % | 89
CN(CCc1ccccn1)c1ccc2c(c1)Cc1ccccc1-2 | % | 9
O=C(O)C1CCCCC1c1c2ccc(=O)c(O)c-2oc2c(O)c(O)ccc12 (stereo not given) | % | 7
CN(C)CCOc1ccc2c(c1)C/C(=C/c1ncc([N+](=O)[O-])n1C)C2=O | % | 47
CC(=O)[O][Bi]([c]1ccccc1)[c]1ccccc1 | % | 6
N#CC(C(=O)Nc1ccccc1)C1=C(Cl)C(=O)c2ccccc2C1=O (stereo not given) | % | 8
N#Cc1ccc(C2NN=CC23C(=O)c2ccccc2OC3c2ccccc2)cc1 (stereo not given) | % | -22

* * *

Each entry below lists one item and its recorded growth inhibition value.
- Test: NCI Yeast Anticancer Drug Screen. Data for the bub3 strain (AID 167)
- Reported conditions: S. cerevisiae bub3 mutant strain, at 5.0 µM (retest, dose inferred, filed as 0.5), active compounds read high
The panel holds about 79,000 compounds, 15% with a hit somewhere; the sample as a whole holds those more often.
Quantity: growth inhibition (%)

Compound | Experimental value
CCC[CH2][Ge]([CH2]CCC)([CH2]CCC)[O]C(=O)C(OC)c1ccccc1 (stereo not given) | 10
O=[N+]([O-])c1ccc([N+]2=NC(c3ccccc3)=NN(c3ccccc3)C2)cc1 | 10
O=C(O)C1OC1(c1cccc(Cl)c1)c1ccccc1Cl (stereo not given) | 30
O=C(O)CNc1ccc(Cl)c(Cl)c1 | -8
CCCCN(CCCC)CCSc1ccc(Cl)cc1 | 5
CC1=C(SCCO)C(=O)c2ccccc2C1=O | -19
Cc1ccc2ccc3cccc4ccc1c2c34 | 2
CCOC(=O)c1cc(-c2ccc(Cl)cc2)c([N+](=O)[O-])n1C | -22
CC[n+]1ccc2c(C)c3[nH]c4ccc(O)cc4c3c(C)c2c1 | -8
S=C(S)NN1CCOCC1 | 85
Fc1ccc(NC(=S)SCc2ccc3c(c2)OCO3)cc1F | 35
CC(=O)Nc1ccc2c(c1)C(=Nc1ccc(C(=O)O)cc1)c1ccccc1-2 | -7
S=C(N/N=C/c1ccccn1)Nc1ccc(Cl)cc1 | 19
Nc1nc(-c2cccnc2)cc(-c2cc(-c3cccnc3)nc(N)n2)n1 | -17
O=C(O)C1CCCCC1c1c2ccc(=O)c(O)c-2oc2c(O)c(O)ccc12 (stereo not given) | -7
S=C(N/N=C(/c1ccccc1)c1ccccn1)N1CCCCCC1 | 95
CC(=O)Nc1ccc(SC(C)=O)cc1 | 18
Nc1ccn(C2OC(CO)C3[O][Sn]([c]4ccccc4)([c]4ccccc4)[O]C32)c(=O)n1 (stereo not given) | -18
O=C(/C=C/c1cccc(Br)c1)c1cccs1 | 36
Cc1ccc(-c2ccc(Nc3c4ccccc4nc4ccccc34)cc2)cn1 | 5
OCC(Cn1cncn1)(c1ccc(F)cc1F)n1cncn1 (stereo not given) | 14
Cn1ccnc1Oc1ccc(Cl)cc1 | -65
Cc1ccc(N)c(S)c1 | 15
O=C(Nc1ccc(Cl)cc1)OCC#CCCl | 4
CN1c2ccc(Cl)cc2C(=O)NC1c1ccc([N+](=O)[O-])s1 (stereo not given) | -1

Ref: PubChem BioAssay (NCI)
